B1: ANKRD40 (parent)
chain: VRIQNPSLRENDFIEIELDRQELT

Variants of: B1
method description: protein stability index of a GFP-peptide fusion (GPS, HEK-293T) (PSI 1-6); higher = more stable;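 also: lentivirally expressed fusions sorted by FACS into six bins by GFP to DsRed ratio, PSI derived from sequencing read proportions per bin multiplied by bin number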
setup conditions: c terminus: a fixed tail appended
Class 1: protein stability index at least 3. Class -1: protein stability index below 3.

variant_designation=L23E qualitative_label=1
variant_designation=E22R qualitative_label=-1
variant_designation=R9G qualitative_label=-1
variant_designation=E10A qualitative_label=-1
variant_designation=S7F qualitative_label=-1
variant_designation=I16K qualitative_label=1
variant_designation=E15L qualitative_label=-1
variant_designation=I14V qualitative_label=1
variant_designation=L8G qualitative_label=-1
variant_designation=E15M qualitative_label=-1
variant_designation=R2V qualitative_label=-1
variant_designation=S7W qualitative_label=-1
variant_designation=I14P qualitative_label=1
variant_designation=T24Y qualitative_label=-1
variant_designation=R2Q qualitative_label=1
variant_designation=I16V qualitative_label=1
variant_designation=T24I qualitative_label=-1
variant_designation=D19N qualitative_label=-1
variant_designation=V1F qualitative_label=-1
variant_designation=P6V qualitative_label=-1
